The origin of these recorded values is ChEMBL document CHEMBL5728557.

Target: CYP3A4 (Homo sapiens, UniProt P08684)
Sequence (P08684 whole entry): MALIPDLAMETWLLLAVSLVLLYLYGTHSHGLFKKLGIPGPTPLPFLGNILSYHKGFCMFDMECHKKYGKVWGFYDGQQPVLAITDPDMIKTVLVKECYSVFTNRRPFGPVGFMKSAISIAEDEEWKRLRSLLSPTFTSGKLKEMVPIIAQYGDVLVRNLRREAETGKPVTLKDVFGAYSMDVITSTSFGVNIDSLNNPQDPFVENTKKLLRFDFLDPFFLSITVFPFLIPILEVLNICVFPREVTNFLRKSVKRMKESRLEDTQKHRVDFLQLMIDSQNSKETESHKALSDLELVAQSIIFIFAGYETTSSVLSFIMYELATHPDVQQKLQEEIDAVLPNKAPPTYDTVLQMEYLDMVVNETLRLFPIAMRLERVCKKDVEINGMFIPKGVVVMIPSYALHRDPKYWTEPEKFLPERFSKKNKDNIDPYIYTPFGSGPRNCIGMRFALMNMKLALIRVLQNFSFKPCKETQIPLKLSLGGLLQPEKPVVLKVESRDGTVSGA
Experiment: As such, the compound of the present invention has no significant inhibitory effect on CYP1A2, CYP2D6 and CYP3A4, and thus has no safety issue caused by metabolism interactions among different drugs due to inhibition of the enzymes.
measured_endpoint: IC50

So for `Cc1nn(C2(CC#N)CN(S(=O)(=O)C(C)C)C2)cc1-c1ncnc2[nH]ccc12` , the logged IC50 turned out to be > 10 µM

###

Target: Cytochrome P450 1A2 (Homo sapiens, UniProt P05177)
Sequence (P05177 whole entry): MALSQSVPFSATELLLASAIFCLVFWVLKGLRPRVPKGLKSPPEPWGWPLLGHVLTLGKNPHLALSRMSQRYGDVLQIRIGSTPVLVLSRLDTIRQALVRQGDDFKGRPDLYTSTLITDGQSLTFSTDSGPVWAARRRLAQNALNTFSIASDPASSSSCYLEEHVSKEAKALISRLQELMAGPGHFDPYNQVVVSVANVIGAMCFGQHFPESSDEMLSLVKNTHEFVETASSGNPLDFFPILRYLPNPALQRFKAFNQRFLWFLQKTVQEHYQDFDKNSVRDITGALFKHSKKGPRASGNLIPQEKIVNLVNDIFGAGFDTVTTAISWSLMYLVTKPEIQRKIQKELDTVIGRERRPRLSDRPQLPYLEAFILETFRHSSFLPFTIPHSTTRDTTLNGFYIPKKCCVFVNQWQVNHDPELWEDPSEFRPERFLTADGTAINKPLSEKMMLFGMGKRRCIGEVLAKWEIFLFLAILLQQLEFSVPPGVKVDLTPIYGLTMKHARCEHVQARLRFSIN
Test: As such, the compound of the present invention has no significant inhibitory effect on CYP1A2, CYP2D6 and CYP3A4, and thus has no safety issue caused by metabolism interactions among different drugs due to inhibition of the enzymes.
measured_endpoint: IC50

So for `Cc1nn(C2(CC#N)CN(S(=O)(=O)C(C)C)C2)cc1-c1ncnc2[nH]ccc12` , the logged IC50 turned out to be > 10 µM

###

Biological target: UniProtKB P10635
Sequence (P10635 whole entry): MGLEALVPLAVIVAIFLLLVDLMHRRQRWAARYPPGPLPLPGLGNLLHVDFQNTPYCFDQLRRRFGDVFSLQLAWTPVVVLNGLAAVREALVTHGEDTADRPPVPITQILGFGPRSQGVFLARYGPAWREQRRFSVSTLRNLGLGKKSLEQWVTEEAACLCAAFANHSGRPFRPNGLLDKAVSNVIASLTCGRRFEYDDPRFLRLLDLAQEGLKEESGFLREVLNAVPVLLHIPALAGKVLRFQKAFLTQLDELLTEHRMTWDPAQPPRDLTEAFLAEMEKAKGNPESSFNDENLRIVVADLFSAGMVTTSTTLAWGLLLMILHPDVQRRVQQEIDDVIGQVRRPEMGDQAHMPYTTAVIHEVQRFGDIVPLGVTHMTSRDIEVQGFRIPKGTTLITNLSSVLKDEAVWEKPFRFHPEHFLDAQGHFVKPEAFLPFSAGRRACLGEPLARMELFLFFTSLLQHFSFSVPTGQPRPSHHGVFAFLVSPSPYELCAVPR
Test: As such, the compound of the present invention has no significant inhibitory effect on CYP1A2, CYP2D6 and CYP3A4, and thus has no safety issue caused by metabolism interactions among different drugs due to inhibition of the enzymes.
pIC50: −log10 of the molar value.
measured_endpoint: pIC50

So for `Cc1nn(C2(CC#N)CN(S(=O)(=O)C(C)C)C2)cc1-c1ncnc2[nH]ccc12` , the logged pIC50 turned out to be < 5.00
